- target.desc: Human Indoleamine 2,3-dioxygenase (IDO) (Homo sapiens, UniProt P14902)
- Construct: His tag (N); made in house; host or cells: E. coli
- Sequence (P14902 whole entry): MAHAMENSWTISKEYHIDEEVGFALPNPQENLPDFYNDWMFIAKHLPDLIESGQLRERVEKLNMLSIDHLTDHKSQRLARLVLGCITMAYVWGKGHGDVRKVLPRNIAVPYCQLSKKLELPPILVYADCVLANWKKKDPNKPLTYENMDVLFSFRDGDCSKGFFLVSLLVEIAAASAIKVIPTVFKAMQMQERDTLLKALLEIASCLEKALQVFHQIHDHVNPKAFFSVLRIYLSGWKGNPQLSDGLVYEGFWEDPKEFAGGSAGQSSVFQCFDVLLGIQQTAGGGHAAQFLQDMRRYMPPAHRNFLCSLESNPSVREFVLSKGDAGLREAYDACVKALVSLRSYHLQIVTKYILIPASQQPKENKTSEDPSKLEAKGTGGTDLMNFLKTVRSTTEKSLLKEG
- protocol: Human IDO enzymatic assay (kynurenine level)
- Type: biochemical
- measurement.context: 6 nM IDO, 10 μM L-Trp; geometric mean; read-out: IDO1 GMean: IC50 (μM) (Biochemical Assay)
Give measured IC50 for each item. Keep answers brief.

Give me measured IC50, please, for this compound: O=C(Cc1ccnc(Cl)c1)N1CCC(C(F)(F)[C@H](O)c2cc(Cl)cc3cn[nH]c23)CC1
0.0001 to 10 µM

Specify measured IC50 for O=C(CC1CCS(=O)(=O)CC1)N1CCC(C(F)(F)[C@H](O)c2c3c(cc4cn[nH]c24)CC3)CC1 .
0.0001 to 10 µM

Answer with the recorded IC50 for the compound listed here: COc1cccc(NC(=O)N2CCC(C(C)(C)C(O)c3cc(Cl)cc4cn[nH]c34)CC2)c1 (stereo not shown)
0.0001 to 10 µM

For CC(C)(C1CCN(C(=O)Nc2ccccc2C#N)CC1)C(O)c1cc(Cl)cc2cn[nH]c12 (stereo not shown) , write its IC50.
0.0001 to 10 µM

Entry CNC(=O)N1CCC(C(C)(C)C(O)c2cc(Cl)cc3cn[nH]c23)CC1 (stereo not shown) needs its IC50 filled in; supply it.
0.0001 to 10 µM

Determine its reported IC50: C[C@@H](NC(=O)N1CCC(C(C)(C)C(O)c2cc(Cl)cc3cn[nH]c23)CC1)c1ccccc1 (stereo partly shown)
0.0001 to 10 µM

Report IC50 for CC(C)(C)OC(=O)N1CCC(C(C)(C)[C@H](O)c2c(F)c(Cl)cc3cn[nH]c23)CC1
0.0001 to 10 µM

Fill in reported IC50 for this entry: O=C(CN1CCS(=O)(=O)CC1)N1CCC(C(F)(F)[C@H](O)c2c3c(cc4cn[nH]c24)CC3)CC1
0.0001 to 10 µM

Output measured IC50 for this item: CC(C)(C1CCN(C(=O)NCCN2CCCS2(=O)=O)CC1)[C@H](O)c1cc(Cl)cc2cn[nH]c12
0.0001 to 10 µM

Please report the measured IC50 for CC(C)(C1CCN(C(=O)Nc2cccc(C#N)c2)CC1)C(O)c1cc(Cl)cc2cn[nH]c12 (stereo not shown)
0.0001 to 10 µM

For the compound CC(C)(C1CCN(C(=O)Nc2cccc(F)c2)CC1)C(O)c1cc(Cl)cc2cn[nH]c12 (stereo not shown) , report IC50.
0.0001 to 10 µM

Report measured IC50; entry is N#CC1CC=C(c2cc(Cl)cc3cn[nH]c23)CC1 (stereo not shown)
0.0001 to 10 µM

Quick one: give measured IC50 for O=C(c1c2c(cc3cn[nH]c13)CC2)C(F)(F)C1CCOCC1
0.0001 to 10 µM

Name the recorded IC50 of the compound listed here: CC(C)NC(=O)N1CCC(C(C)(C)[C@H](O)c2cc(Cl)cc3cn[nH]c23)CC1
0.0001 to 10 µM

Give the reported IC50 for this compound. C[C@H](NC(=O)N1CCC(C(C)(C)C(O)c2cc(Cl)cc3cn[nH]c23)CC1)c1ccccn1 (stereo partly shown)
0.0001 to 10 µM

Given CC(C)(C1CCN(C(=O)NCCO)CC1)C(O)c1cc(Cl)cc2cn[nH]c12 (stereo not shown) , respond with its IC50.
0.0001 to 10 µM

Give IC50 for the following compound: CC(C)(C1CCN(C2CC2)CC1)C(O)c1cc(Cl)cc2cn[nH]c12 (stereo not shown)
0.0001 to 10 µM

Let me know recorded IC50 for OC(c1c(F)c(Cl)c(F)c2cn[nH]c12)C1CCC1 (stereo not shown) , thanks.
0.0001 to 10 µM

Assign IC50 to the following record: O=C(Cc1ccc(Cl)c(F)c1)N1CCC(C(F)(F)[C@H](O)c2c3c(cc4cn[nH]c24)CC3)CC1
0.0001 to 10 µM

Specify reported IC50 for the compound shown: CC1(C(O)c2cc(Cl)cc3[nH]ncc23)CCCCC1 (stereo not shown)
0.0001 to 10 µM

For the compound CC(C)(C1CCN(C(=O)C2(F)CC2)CC1)[C@H](O)c1cc(Cl)cc2cn[nH]c12 , give its measured IC50 value.
0.0001 to 10 µM

Give IC50 for OC(c1cccc2cncn12)C1CCCC1 (stereo not shown)
0.0001 to 10 µM

Kindly indicate its recorded IC50. Item: CC(=O)N1CCC(C(C)(C)C(O)c2cc(Cl)cc3cn[nH]c23)CC1 (stereo not shown)
0.0001 to 10 µM

Query IC50 for OC(CCc1ccccc1)c1cccc2cncn12 (stereo not shown)
0.0001 to 10 µM

Give the reported value of IC50 for this record: CC(C)(C1CCN(C(=O)NC2CCCC2)CC1)C(O)c1cc(Cl)cc2cn[nH]c12 (stereo not shown)
0.0001 to 10 µM

Consider the compound CC(C)(C1CCN(C(=O)NCS(C)(=O)=O)CC1)[C@H](O)c1cc(Cl)cc2cn[nH]c12 . State its measured IC50.
0.0001 to 10 µM

State, in one line, measured IC50 of CNC(=O)N1[C@@H]2CC[C@H]1C[C@@H](C(C)(C)C(O)c1cc(Cl)cc3cn[nH]c13)C2 (stereo partly shown)
0.0001 to 10 µM

Write down IC50 measured for item CC(C)(C1CCN(C(=O)Nc2ccccc2F)CC1)C(O)c1cc(Cl)cc2cn[nH]c12 (stereo not shown)
0.0001 to 10 µM

Supply measured IC50 of CC(C)(C)OC(=O)N1CCC(C(C)(C)[C@@H](O)c2c(F)c(Cl)cc3cn[nH]c23)CC1 in your reply.
0.0001 to 10 µM

Indicate its recorded IC50; the compound in question is O=C(C1CC1)N1CCC(C(F)(F)C(O)c2cc(Cl)cc3cn[nH]c23)CC1 (stereo not shown)
0.0001 to 10 µM

Look up IC50 of CC(C)(C1CCN(C(=O)C2CCC2)CC1)[C@H](O)c1cc(Cl)cc2cn[nH]c12 and report it.
0.0001 to 10 µM
